- assay.notes: RP-HPLC retention on Purosphere RP-18e (ODS) column, buffer pH 7.4-acetonitrile
- Format: physicochemical
- settings: slope of Soczewiński-Wachtmeister equation, acetonitrile φ 0.3–0.6
property.name: s ODS

O=c1c(-c2ccco2)nnc2n1CCN2c1ccc(Cl)cc1; 4.59
O=c1c(-c2ccccc2)nnc2n1CCN2c1ccc(Cl)c(Cl)c1; 5.90
Cc1ccc(N2CCn3c2nnc(Cc2cccc(Cl)c2)c3=O)cc1; 5.41
O=c1c(CCc2ccccc2)nnc2n1CCN2c1ccccc1Cl; 4.44

P = Cc1ccc(N2CCn3c2nnc(Cc2ccccc2)c3=O)cc1
Q = CCc1nnc2n(c1=O)CCN2c1ccccc1Cl
Between P and Q , whose recorded s ODS is greater? Lab log: write the label of the selected item as the result.
P

----------
- assay.notes: RP-HPLC retention on Purosphere RP-18e (ODS) column, buffer pH 7.4-acetonitrile
- Assay type: physicochemical
- settings: extrapolated to buffer pH 7.4 as mobile phase, 25 °C
property.name: log kw, ODS

O=c1c(Cc2ccccc2)nnc2n1CCN2c1ccc(Cl)cc1; 3.11
CCOc1ccc(N2CCn3c2nnc(Cc2ccccc2Cl)c3=O)cc1; 2.93
O=c1c(Cc2ccccc2)nnc2n1CCN2c1ccccc1; 2.90
CCc1nnc2n(c1=O)CCN2c1ccc(C)cc1; 1.30
Cc1ccc(N2CCn3c2nnc(Cc2cccc(C)c2)c3=O)cc1; 3.09

I = O=c1c(-c2ccco2)nnc2n1CCN2c1ccccc1
II = CCc1nnc2n(c1=O)CCN2c1ccccc1Cl
Please compare: I and II . Report which one has the smaller log kw, ODS value. Lab log: write the label of the selected item as the result.
II
(II: 1.22, I: 2.12)

----------
- assay.notes: RP-HPLC retention on Cosmosil Cholester column, buffer pH 7.4-acetonitrile
- Type: physicochemical
- settings: slope of Soczewiński-Wachtmeister equation, acetonitrile φ 0.4–0.6
property.name: s Cholester

Cc1ccc(N2CCn3c2nnc(-c2ccccc2)c3=O)cc1; 4.65

1 = Cc1ccccc1N1CCn2c1nnc(Cc1ccccc1Cl)c2=O
2 = COC(=O)Cc1nnc2n(c1=O)CCN2c1ccccc1
Please compare: 1 and 2 . Report which one has the smaller s Cholester value. Lab log: write the label of the selected item as the result.
2

I = O=c1c(Cc2ccccc2Cl)nnc2n1CCN2c1ccccc1
II = COc1ccccc1N1CCn2c1nnc(-c1ccco1)c2=O
Between I and II , whose recorded s Cholester is greater? Lab log: write the label of the selected item as the result.
I

A = O=c1c(CCc2ccccc2)nnc2n1CCN2c1ccc(Cl)cc1
B = COC(=O)Cc1nnc2n(c1=O)CCN2c1ccc(Cl)cc1
Between A and B , whose recorded s Cholester is greater? Lab log: write the label of the selected item as the result.
A
(A: 5.12, B: 3.55)

----------
- assay.notes: RP-HPLC retention on IAM.PC.DD2 (immobilized artificial membrane) column, buffer pH 7.4-acetonitrile
- Assay type: physicochemical
- settings: extrapolated to buffer pH 7.4 as mobile phase, 25 °C
- Method: Retention parameters reported as the log k values were calculated by the expression:(1) logk=log(tR−t0)/t0 where tR and t0 are the retention times of the solute and a non-retained compound (citric acid), respectively. […] As mobile phases buffer-acetonitrile mixtures were used. […] With the ODS column acetonitrile concentration in the effluent, expressed as a volume fraction (φ, v/v), was changed in the range 0.3–0.6, with the constant step of 0.1. […] They were detected under UV light at 210 and 254 nm. […]
property.name: log kw, IAM

# example entries with known answers
CCOC(=O)Cc1nnc2n(c1=O)CCN2c1ccccc1 [Compound 12]; 1.21
CCOC(=O)Cc1nnc2n(c1=O)CCN2c1ccc(OC)cc1 [Compound 14]; 0.91

A = COc1ccc(N2CCn3c2nnc(-c2ccco2)c3=O)cc1 [Compound 23]
B = CCOC(=O)Cc1nnc2n(c1=O)CCN2c1cccc(Cl)c1 [Compound 15]
C = O=c1c(Cc2ccc(Cl)cc2)nnc2n1CCN2c1ccc(Cl)cc1 [Compound 60]
Hi! Can you put these in order of log kw, IAM, lowest number first? Answer with the labels in sequence, matching the requested order.
A, B, C
(A: 1.19, B: 2.05, C: 3.17)

src = paper PMC7037052
